test: in vitro; settings: human, CC50 (reduction in cell viability, MTT)
MEASURED_ENDPOINT: CC50 (µM)
Numeric only. Scale: µM

Task: Report CC50 for O=C(c1cccc(/C=C2\SC(=O)N(Cc3ccccc3)C2=O)c1)N1CCN(c2ccccn2)CC1 please.
Result: 48.8

* * *

Readings of CC50 for the listed compounds
assay: in vitro; conditions: hamster, CC50 (reduction in cell viability, MTT)

Task: What value of measured CC50 is listed for O=C(c1cccc(/C=C2\SC(=O)N(Cc3ccc(F)cc3)C2=O)c1)N1CCN(c2ccccn2)CC1 ?
Result: 64.8 µM

Task: And the next one, O=C(c1cccc(/C=C2\SC(=O)N(Cc3cccc(F)c3)C2=O)c1)N1CCN(c2ccccn2)CC1 ?
Result: 46.5 µM

Task: Same thing, different compound: O=C(c1cccc(/C=C2\SC(=O)N(Cc3ccccc3)C2=O)c1)N1CCN(c2ccccn2)CC1
Result: > 100 µM
